meta.source: PubChem BioAssay (NCI)

tested on: NCI/ADR-RES ovarian; experiment: NCI-60 one-dose screen, 48 h (100 = growth as untreated, 0 = no growth, -100 = all killed); conditions: 10 µM unless noted
This is part of a sample that, as a whole, favours compounds with a hit. Of some 83,000 tested, about 20% had one in any assay.
Answer each item with its documented growth.
Supply the numeric figure in %, leaving out any unit text.

input: Look up growth of C=C1C(=O)O[C@@H]2C[C@@H](C)CCC(=O)[C@](C)(OC(C)=O)C[C@H](OC(=O)/C(C)=C\C)[C@@H]12 and report it.
output: 97.2

input: Look up growth of O=C(Nc1ccc(-c2nc(-c3cccc(O)c3)c(-c3ccnc(Br)c3)[nH]2)cc1)c1ccccc1 and report it.
output: 57.6

input: Look up growth of NS(=O)(=O)Oc1ccc2nc(Nc3ccc(F)c(F)c3)ccc2c1 and report it.
output: 94.6

input: Look up growth of COc1ccc([C@H]2[C@H](O)C(=O)N2c2cc(OC)c(OC)c(OC)c2)cc1 and report it.
output: 18

input: Look up growth of COc1ccc(/C(C)=C(\c2ccc(Cl)cc2)c2ccc(OCCN)cc2)cc1 and report it.
output: 89.1

input: Look up growth of O=C(Nc1ccccc1)Nc1nc2ccc([N+](=O)[O-])cc2s1 and report it.
output: 2.34

input: Look up growth of O=C(COc1ccc(/C=C2\SC(=O)NC2=O)cc1)Nc1ccc(C(=O)/C=C/c2cc3ccccc3nc2Cl)cc1 and report it.
output: 92.6

input: Look up growth of CCN(CC)CCN1C(=O)c2c(c3c4cc(Br)ccc4[nH]c3c3ccc4ccccc4c23)C1=O and report it.
output: -76.3

input: Look up growth of CCCCCCNC(=O)Oc1ccc(/C(=C(\C)c2ccc(OC)cc2)c2ccc(OCCN(C)C)cc2)cc1 and report it.
output: 74.8

input: Look up growth of C(=C(\C1=NCCN1)n1cnc2ccccc21)/c1ccc2ccccc2c1 and report it.
output: 76.6

input: Look up growth of CC(C)Sc1nc(NC2CC2)c(C#N)c(-c2ccccc2)n1 and report it.
output: 74.5

input: Look up growth of Clc1ccccc1/C=C/c1nn2c(-c3ccncc3)nnc2s1 and report it.
output: 106

input: Look up growth of CC(=O)Nc1ccc(C)c(Nc2cc(-c3ccc(-n4cccn4)cc3)[nH]n2)c1 and report it.
output: 87.7

input: Look up growth of O=C1c2cc(Br)ccc2-n2c1nc1cc(Br)ccc1c2=O and report it.
output: 84.2

input: Look up growth of O=C(CCCCCCN1CC(=O)N2[C@@H](c3cccc(Cl)c3)c3[nH]c4ccccc4c3C[C@H]2C1=O)NO and report it.
output: 94.3

input: Look up growth of c1ccc(-c2n(Cc3ccc4ccccc4c3)c3c4ccccc4c4ccccc4c3[n+]2Cc2ccc3ccccc3c2)cc1 and report it.
output: -4.33

input: Look up growth of C#C[C@]1(O)CC[C@H]2[C@@H]3CC=C4c5sc(-c6ccccn6)nc5CC[C@]4(C)[C@H]3CC[C@@]21C and report it.
output: 89.8

input: Look up growth of COc1ccc(C2CC(c3ccc(Nc4nc(NCCO)nc(Nc5ccc(Cl)cc5)n4)cc3)=Nc3c(N)nc(N)nc3N2)cc1 (centres undefined) and report it.
output: 76

input: Look up growth of COc1ccc(-c2nnc(SCc3ccc(O)c4ncccc34)o2)cc1 and report it.
output: 16.9

* * *

tested on: HCT-15 colon; test: NCI-60 one-dose screen, 48 h (100 = growth as untreated, 0 = no growth, -100 = all killed); conditions: 10 µM unless noted
About 83,000 compounds went through this panel and 20% of them were active in at least one assay; those are over-represented in the sample as a whole.
quantity name: growth (%)
Supply the numeric figure in %, leaving out any unit text.

input: Look up growth of CC1OC(O[C@@H]2[C@H](O)C(CO)OC(O[C@H]3COC(O[C@H]4CC[C@]5(C)[C@H]6CC[C@]78OC[C@@]9(CCC(C)(C)C[C@H]97)[C@H](O)C[C@@]8(C)[C@]6(C)CC[C@H]5C4(C)C)[C@@H](OC4OC(CO)[C@@H](O)[C@@H](O)[C@@H]4O)[C@@H]3O)[C@H]2OC2OC[C@@H](O)[C@@H](O)[C@@H]2O)[C@@H](O)[C@@H](O)[C@H]1O (some centres undefined) and report it.
output: -52.8

input: Look up growth of NS(=O)(=O)c1ccc(Nc2nc(N/N=C/c3ccc(F)cc3)nc(Nc3ccccc3)n2)cc1 and report it.
output: 79.3

input: Look up growth of CCC(CC)n1c(=O)c(SC2=NC3C(NN2)N(CC)C(=O)N3CC)c(C(=O)O)c2ccccc21 (centres undefined) and report it.
output: 14.2

input: Look up growth of O=c1cc(-c2ccccc2)nc2sc(-c3c[nH]c4ccc(F)cc34)nn12 and report it.
output: 67.8

* * *

Answer each item with its documented growth.
system: RPMI-8226 leukemia; experiment: NCI-60 one-dose screen, 48 h (100 = growth as untreated, 0 = no growth, -100 = all killed); settings: 10 µM unless noted
Compounds without any hit were thinned out: in the full panel of roughly 83,000, 20% have a hit. Active and inactive are the calls of the source. How the source made its calls: active means growth percent below 10; inactive means the rest.

input: Look up growth of CCN1CCN(c2cc(C(=O)Nc3nc4ccc(Oc5ccnc(C(=O)NC)c5)cc4s3)cc(C(F)(F)F)c2)CC1 and report it.
output: 33% (inactive)

input: Look up growth of COc1cc(O)c2c(c1)/C=C/C[C@H](O)[C@H](O)C(=O)/C=C\C[C@H](C)OC2=O and report it.
output: -4.42% (active)

input: Look up growth of COc1ccc(-c2no[n+]([O-])c2Nc2ccccc2Br)cc1 and report it.
output: 93.7% (inactive)

input: Look up growth of O=C1NC(=O)c2c1c1c3ccccc3ccc1c1[nH]c3ccccc3c21 and report it.
output: 1.6% (active)

input: Look up growth of O=C(NCCCNc1cc(-c2cn(-c3ccccc3)nc2-c2cccc(O)c2)ccn1)Nc1cc(C(F)(F)F)cc(C(F)(F)F)c1 and report it.
output: 43.9% (inactive)

input: Look up growth of CCN1CCN(Cc2ccc(C(=O)Nc3nc4ccc(Oc5ccnc(C(=O)NC)c5)cc4s3)cc2C(F)(F)F)CC1 and report it.
output: 26.4% (inactive)

input: Look up growth of O=C(c1cccc(F)c1)n1ccc2cc(NC(=S)Nc3cccnc3)ccc21 and report it.
output: 99.3% (inactive)

input: Look up growth of CC(C)=CCc1c(O)c(CC=C(C)C)c2c(c1O)C(=O)C1=C[C@@H]3C[C@H]4C(C)(C)O[C@@](C/C=C(\C)C(=O)O)(C3=O)[C@@]14O2 and report it.
output: -23.1% (active)

* * *

Tested on: UACC-62 melanoma
Test: NCI-60 one-dose screen, 48 h
Details: 10 µM unless noted
Protocol: Growth inhibition of the UACC-62 human tumor cell line is measured as a screen for anti-cancer activity. Cells are grown in 96 well plates and exposed to the test compound for 48 hours. Compounds are tested at a single concentration, which is 10^-5 M for most compounds. The reported endpoint is percent growth (GI% or GIPRCNT), where numbers from 0 - 100% represent growth inhibition, and numbers from -100% - 0 represent cell death. For example, a value of 40 represents 60% growth inhibition. […]
About 83,000 compounds went through this panel and 20% of them were active in at least one assay; those are over-represented in the sample as a whole. Active and inactive are the calls of the source. Rule for the calls: active = growth percent below 10; inactive = the rest.
Lab note: assign the record to one of 1 (yes) (active), 0 (no) (inactive)

input: Returns: the outcome recorded for CC1=CC(=O)CC(C)(C)[C@@]1(O)/C=C/C(C)=C\C(=O)O in this assay.
output: 1 (yes)

input: Returns: the outcome recorded for C=CCn1c(SCC(=O)Nc2cccc(C(=O)/C=C/c3ccc(Cl)cc3)c2)nc2ccccc2c1=O in this assay.
output: 0 (no)

input: Returns: the outcome recorded for COc1cc2c3c(n(CCCNC4CCCC4)c(=O)c2cc1OC)-c1cc2c(cc1C3=O)OCO2 in this assay.
output: 0 (no)

input: Returns: the outcome recorded for CCOC(=O)C1=C(C)Nc2nc3ccccc3n2C1c1ccccc1 (stereo not given) in this assay.
output: 0 (no)

input: Returns: the outcome recorded for Cc1cnc2nc(NN)[nH]n12 in this assay.
output: 0 (no)

* * *

test system: MALME-3M melanoma; test: NCI-60 one-dose screen, 48 h; conditions: 10 µM unless noted
About 83,000 compounds went through this panel and 20% of them were active in at least one assay; those are over-represented in the sample as a whole. Active and inactive are the calls of the source. The calls were made as follows: active = growth percent below 10; inactive = the rest.
Lab note: assign the record to one of active, inactive

input: Returns: the outcome recorded for NS(=O)(=O)c1ccc(Nc2nc(N/N=C/c3ccc(F)cc3)nc(Nc3ccccc3)n2)cc1 in this assay.
output: inactive

input: Returns: the outcome recorded for O=C1[C@H]2Cc3c([nH]c4ccccc34)[C@@H](c3c(Cl)cccc3Cl)N2C(=O)CN1C1CCN(Cc2ccccc2)CC1 in this assay.
output: inactive

input: Returns: the outcome recorded for CCCCSc1nnc(-c2ccc(-c3ccc(Cl)cc3)nc2C)o1 in this assay.
output: inactive

input: Returns: the outcome recorded for COc1ccc(N)cc1C(=O)Nc1cccc(-c2cc(=O)c3c(OC)c(OC)c(OC)cc3o2)c1 in this assay.
output: inactive

input: Returns: the outcome recorded for COc1ccc([C@H]2[C@H](O)C(=O)N2c2cc(OC)c(OC)c(OC)c2)cc1Cl in this assay.
output: inactive

input: Returns: the outcome recorded for Oc1ccc(-c2nnc(SCc3ccc(O)c4ncccc34)n2-c2ccccc2)cc1 in this assay.
output: active

input: Returns: the outcome recorded for O=c1cc(-c2ccccc2)nc2sc(-c3c[nH]c4ccc(F)cc34)nn12 in this assay.
output: inactive

input: Returns: the outcome recorded for N#Cc1c(-c2ccccc2)cc(-c2c[nH]c3ccccc23)nc1-c1c[nH]c2ccccc12 in this assay.
output: inactive

input: Returns: the outcome recorded for COc1cc2cc(Oc3ccc(NC(=O)Nc4cc(C(F)(F)F)cc(C(F)(F)F)c4)cc3)c(C)nc2cc1OCCN(C)C in this assay.
output: inactive
